assay: Inhibition of Bocillin FL binding to PBP2 in Escherichia coli MC4100 membranes; type: cell membranes
Task for the reader: assign each of the following compounds its reported IC50.

Measured IC50 of CC(C)(O/N=C(\C(=O)N[C@@H]1C(=O)N2C(C(=O)[O-])=C(C[n+]3ccccc3)CS[C@H]12)c1csc(N)n1)C(=O)O [CEFTAZIDIME] : 4000 ng/mL

Form field IC50, entry C[C@H]1[C@H](NC(=O)/C(=N\OC(C)(C)C(=O)O)c2csc(N)n2)C(=O)N1S(=O)(=O)O [AZTREONAM] : > 8000 ng/mL

Item: C[C@@H](O)[C@H]1C(=O)N2C(C(=O)O)=C(SCCNC=N)C[C@H]12 [IMIPENEM ANHYDROUS] | IC50: 8 ng/mL

The measured IC50 associated with C[C@@H](O)[C@H]1C(=O)N2C(C(=O)O)=C(S[C@@H]3CN[C@H](CNS(N)(=O)=O)C3)[C@H](C)[C@H]12 [DORIPENEM] reads 8 ng/mL

Reported IC50 ( C[C@@H](O)[C@H]1C(=O)N2C(C(=O)O)=C(S[C@@H]3CN[C@H](C(=O)N(C)C)C3)[C@H](C)[C@H]12 [MEROPENEM] ) = 8 ng/mL

* * *

Consider the following molecules; for each one, report its IC50.
assay: Inhibition of Bocillin FL binding to PBP4 in Pseudomonas aeruginosa 27853 membranes
Response body: numeric value in µg/mL, unit text excluded.

Entry under test: CC(C)(O/N=C(\C(=O)N[C@@H]1C(=O)N2C(C(=O)[O-])=C(C[n+]3ccccc3)CS[C@H]12)c1csc(N)n1)C(=O)O [CEFTAZIDIME] . Its IC50 was 2

Entry under test: C[C@@H](O)[C@H]1C(=O)N2C(C(=O)O)=C(S[C@@H]3CN[C@H](C(=O)N(C)C)C3)[C@H](C)[C@H]12 [MEROPENEM] . Its IC50 was 0.02

* * *

What IC50 was measured for each of the following?
experiment: Inhibition of Bocillin FL binding to PBP5/6 in Pseudomonas aeruginosa PAO1 membranes
I only need the number, in µg/mL, no unit after it.

The reported IC50 of the compound C[C@@H](O)[C@H]1C(=O)N2C(C(=O)O)=C(S[C@@H]3CN[C@H](CNS(N)(=O)=O)C3)[C@H](C)[C@H]12 [DORIPENEM] was 8

Quick note, IC50 for C[C@@H](O)[C@H]1C(=O)N2C(C(=O)O)=C(S[C@@H]3CN[C@H](C(=O)N(C)C)C3)[C@H](C)[C@H]12 [MEROPENEM] landed at 16

Memo: C[C@@H](O)[C@H]1C(=O)N2C(C(=O)O)=C(SCCNC=N)C[C@H]12 [IMIPENEM ANHYDROUS] , reported IC50: 2

* * *

test: Inhibition of Bocillin FL binding to PBP4 in Pseudomonas aeruginosa PAO1 membranes
Please respond with reported IC50 for every item in the list.
Give the value, in units of ng/mL, as a plain number.

Sample C[C@@H](O)[C@H]1C(=O)N2C(C(=O)O)=C(S[C@@H]3CN[C@H](CNS(N)(=O)=O)C3)[C@H](C)[C@H]12 ; IC50 observed: 8

CC(C)(O/N=C(\C(=O)N[C@@H]1C(=O)N2C(C(=O)[O-])=C(C[n+]3ccccc3)CS[C@H]12)c1csc(N)n1)C(=O)O has a reported IC50 of 2000

Quick note, IC50 for C[C@@H](O)[C@H]1C(=O)N2C(C(=O)O)=C(S[C@@H]3CN[C@H](C(=O)N(C)C)C3)[C@H](C)[C@H]12 landed at 8

// C[C@H]1[C@H](NC(=O)/C(=N\OC(C)(C)C(=O)O)c2csc(N)n2)C(=O)N1S(=O)(=O)O : IC50 value = 16000

Short answer for C[C@@H](O)[C@H]1C(=O)N2C(C(=O)O)=C(SCCNC=N)C[C@H]12 [IMIPENEM ANHYDROUS] : IC50 was 8
